# test.description: NCI Yeast Anticancer Drug Screen. Data for the rad50 strain (AID 155)
# conditions.used: S. cerevisiae rad50 strain growth inhibition; at 5.0 µM (retest, dose inferred, filed as 0.5)
The panel holds about 79,000 compounds, 15% with a hit somewhere; the sample as a whole holds those more often. Activity calls are given as the source filed them. Rule as the data show it: active = growth inhibition above about 70%; inactive = the rest.
Result category, one only: active, inactive

Please review the following examples before continuing.
[Q] // outcome(item) with item = c1ccc(P(CCP(c2ccccc2)c2ccccc2)CCP(c2ccccc2)c2ccccc2)cc1
[A] active

[Q] What do we get for CC(=O)OCC1OC(OC(C)C)[CH]([Hg][S]Cc2ccccc2)C(OC(C)=O)C1OC(C)=O (stereo not given) ?
[A] active

[Q] What do we get for C/C(CCl)=N/NC1=NC(c2ccccc2Cl)P(=O)(NCCCNP2(=O)SC(N/N=C(/C)CCl)=NC2c2ccccc2Cl)S1 (stereo not given) ?
[A] inactive

[Q] What do we get for Oc1cccc2nc3ccccc3nc12 ?
[A] inactive

Next item in the queue.
[Q] // outcome(item) with item = CC(=O)[O][Hg][c]1cc2c(cc1O)Cc1cc([N+](=O)[O-])ccc1-2
[A] active

Every entry's value here was drawn from PubChem BioAssay (NCI).
